Origin of the recorded values: patent US10428140B2

Target: SEAP-His (Homo sapiens, UniProt P05187)
Sequence (P05187 23-511 limits assumed): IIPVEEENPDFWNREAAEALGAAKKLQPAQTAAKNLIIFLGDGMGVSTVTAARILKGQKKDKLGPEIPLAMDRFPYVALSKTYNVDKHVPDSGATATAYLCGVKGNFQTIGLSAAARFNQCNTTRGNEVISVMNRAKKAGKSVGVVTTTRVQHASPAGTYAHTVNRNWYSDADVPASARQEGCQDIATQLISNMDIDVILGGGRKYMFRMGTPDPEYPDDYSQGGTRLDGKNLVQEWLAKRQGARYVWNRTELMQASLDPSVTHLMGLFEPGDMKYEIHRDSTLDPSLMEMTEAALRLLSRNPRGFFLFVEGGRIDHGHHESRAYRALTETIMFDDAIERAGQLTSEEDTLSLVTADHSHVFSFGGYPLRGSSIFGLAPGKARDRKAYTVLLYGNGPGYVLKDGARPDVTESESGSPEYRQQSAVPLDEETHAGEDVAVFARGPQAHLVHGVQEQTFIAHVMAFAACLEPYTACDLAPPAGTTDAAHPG
Assay: Selectivity ELISA of humanized antibodies for human Eph receptor
Assay type: binding
Conditions: coated protein 1 nM
measuredParameter: SEAP-His: absorbance at 450 nm, percentage with respect to hEphA4-SEAP-His as 100% (%)
Entry rule: numbers only, all in %.

Report SEAP-His: absorbance at 450 nm, percentage with respect to hEphA4-SEAP-His as 100% for 133 (antibody, V domains shown, synthetic humanized antibody heavy chain variable region sequence; synthetic humanized antibody light chain variable region sequence) VH: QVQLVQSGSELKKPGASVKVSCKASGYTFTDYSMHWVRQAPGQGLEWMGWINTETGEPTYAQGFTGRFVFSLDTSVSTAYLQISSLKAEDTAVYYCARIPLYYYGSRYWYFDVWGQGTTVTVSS VL: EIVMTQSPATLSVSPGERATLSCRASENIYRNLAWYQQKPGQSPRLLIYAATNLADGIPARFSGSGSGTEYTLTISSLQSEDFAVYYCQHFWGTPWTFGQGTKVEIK
4.7
